Values were extracted from patent US10221163B2.

# target.or.test.system: NDM-1 (Klebsiella pneumoniae, UniProt C7C422)
# Sequence (C7C422 whole entry, looked up, species assumed): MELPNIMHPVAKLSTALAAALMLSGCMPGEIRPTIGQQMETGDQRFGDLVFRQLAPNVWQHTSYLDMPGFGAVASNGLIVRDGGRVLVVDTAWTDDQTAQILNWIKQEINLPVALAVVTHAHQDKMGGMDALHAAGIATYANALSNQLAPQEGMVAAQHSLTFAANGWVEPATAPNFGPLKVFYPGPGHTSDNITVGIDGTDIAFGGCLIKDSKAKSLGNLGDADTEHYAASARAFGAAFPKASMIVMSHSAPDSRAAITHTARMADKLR
# assay.explanation: biochemical
# Format: biochemical
# experimental.conditions: fluorescence assay, CCF2-FA substrate, 1 pM enzyme, 2 hours at 25° C.; read-out: NDM-1 IC50
pIC50: −log10 of the molar value.
Decision: pIC50 compared against 10; not below it gives YES, below it gives NO.

# example entries with known answers
CN([C@H]1CCNC1)S(=O)(=O)c1ccc(-c2cccc3[nH]c(N)nc23)c(-c2nn[nH]n2)c1S(N)(=O)=O [Example 244] : NO
NS(=O)(=O)c1c(S(=O)(=O)N[C@@H]2CCNC2)ccc(-c2ccc3nonc3c2)c1-c1nnn[nH]1 [Example 133] : NO
Nc1ccc(-c2ccc(S(=O)(=O)N[C@H]3CNC[C@H]3O)c(S(N)(=O)=O)c2-c2nn[nH]n2)cn1 [Example 410] : NO

Input line: Check this compound for pIC50 at or above 10: C[C@H](N)CNS(=O)(=O)c1ccc(-c2cccc3sc(N)nc23)c(-c2nnn[nH]2)c1S(N)(=O)=O.O=CO [Example 127, formate salt]
Output line: YES

Input line: Check this compound for pIC50 at or above 10: Nc1ccc(-c2ccc(S(=O)(=O)NC[C@H]3CCCN3)c(S(N)(=O)=O)c2-c2nn[nH]n2)cn1 [Example 489]
Output line: NO

Input line: Check this compound for pIC50 at or above 10: Nc1nc2c(-c3ccc(S(=O)(=O)NC4C[C@@H]5CN[C@H]4C5)c(S(N)(=O)=O)c3-c3nnn[nH]3)cccc2s1.O=CO (stereo partly shown) [Example 119, formate salt]
Output line: YES

Input line: Check this compound for pIC50 at or above 10: NC[C@@H](O)CNS(=O)(=O)c1ccc(-c2ccc3nccn3c2)c(-c2nn[nH]n2)c1S(N)(=O)=O [Example 420]
Output line: NO

Input line: Check this compound for pIC50 at or above 10: Cn1c(N)nc2c(-c3ccc(S(=O)(=O)N[C@@H]4CCNC4)c(S(N)(=O)=O)c3-c3nn[nH]n3)cccc21 [Example 164]
Output line: YES

---

# target.or.test.system: IMP-1 (Serratia marcescens, UniProt P52699)
# Sequence (P52699 whole entry, looked up, species assumed): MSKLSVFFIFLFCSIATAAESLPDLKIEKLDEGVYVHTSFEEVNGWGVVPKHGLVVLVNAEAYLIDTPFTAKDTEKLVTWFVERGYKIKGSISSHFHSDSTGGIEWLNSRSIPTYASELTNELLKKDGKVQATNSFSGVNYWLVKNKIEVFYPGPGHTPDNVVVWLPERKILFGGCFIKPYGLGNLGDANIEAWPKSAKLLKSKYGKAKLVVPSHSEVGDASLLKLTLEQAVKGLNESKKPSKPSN
# assay.explanation: biochemical
# Format: biochemical
# experimental.conditions: fluorescence assay, CCF2-FA substrate, 2 pM enzyme, 2 hours at 25° C.; read-out: IMP-1 IC50
Parameter: pIC50. Scope: all listed entries.
When answering, recall that pIC50 equals minus log10 of the concentration in mol/L, and write that number alone.

Worked examples follow.
NCC(CN)NS(=O)(=O)c1ccc(-c2cccc3sc(N)nc23)c(-c2nn[nH]n2)c1S(N)(=O)=O : 9.99
NCCN1CC[C@@H](NS(=O)(=O)c2ccc(-c3ccc(N)nc3)c(-c3nn[nH]n3)c2S(N)(=O)=O)C1 : 9.78
NCCNCc1sc(N)nc1-c1cccc(-c2ccc(S(=O)(=O)N[C@@H]3CCNC3)c(S(N)(=O)=O)c2-c2nnn[nH]2)c1 : 8.88
NCc1nc2c(-c3ccc(S(=O)(=O)N[C@@H](CN)CO)c(S(N)(=O)=O)c3-c3nn[nH]n3)cccc2[nH]1 : 9.20

Input line: Which pIC50 value is on record for C[C@H](CN)NS(=O)(=O)c1ccc(-c2cc(F)cc3[nH]c(N)nc23)c(-c2nn[nH]n2)c1S(N)(=O)=O ?
Output line: 9.66

Input line: Which pIC50 value is on record for Nc1nc2c(-c3ccc(S(=O)(=O)N[C@@H]4CN[C@H](CO)C4)c(S(N)(=O)=O)c3-c3nnn[nH]3)cccc2[nH]1 ?
Output line: 9.00

Input line: Which pIC50 value is on record for NC[C@@H](N)CNS(=O)(=O)c1ccc(-c2cccc3ccc(N)nc23)c(-c2nn[nH]n2)c1S(N)(=O)=O ?
Output line: 9.56

---

# System: Pseudomonas aeruginosa MB9798 vs MB9799
# experimental.conditions: ratio MITC95 PA_9798/MITC95 PA_9799
Parameter: Efflux ratio. Scope: all listed entries.
Give only the figure.

NC[C@H](CO)NS(=O)(=O)c1ccc(-c2cccc3sc(N)nc23)c(-c2nnn[nH]2)c1S(N)(=O)=O : 1.00

Input line: Which Efflux ratio value is on record for NS(=O)(=O)c1c(S(=O)(=O)N[C@@H]2CCNC2)ccc(-c2ccc3nonc3c2)c1-c1nnn[nH]1 ?
Output line: 8.00

Input line: Which Efflux ratio value is on record for Nc1nc2c(-c3ccc(S(=O)(=O)NC[C@H]4CCNC4)c(S(N)(=O)=O)c3-c3nnn[nH]3)cccc2s1 ?
Output line: 0.50

Input line: Which Efflux ratio value is on record for Nc1nc2c(-c3ccc(S(=O)(=O)NCC4CCNC4)c(S(N)(=O)=O)c3-c3nnn[nH]3)cccc2s1.O=CO (stereo not shown) ?
Output line: 0.50

---

# target.or.test.system: NDM-1 (Klebsiella pneumoniae, UniProt C7C422)
# assay.explanation: biochemical
# Type: biochemical
# experimental.conditions: fluorescence assay, CCF2-FA substrate, 1 pM enzyme, 2 hours at 25° C.; read-out: NDM-1 IC50
measured.endpoint: pIC50
When answering, recall that pIC50 equals minus log10 of the concentration in mol/L, and write that number alone.

Worked examples follow.
NCC(CN)NS(=O)(=O)c1ccc(-c2cccc(-c3c[nH]c(N)n3)c2)c(-c2nn[nH]n2)c1S(N)(=O)=O [Example 435] : 9.34
Nc1nc2c(-c3ccc(S(=O)(=O)NC[C@H]4CNCCN4)c(S(N)(=O)=O)c3-c3nn[nH]n3)cccc2[nH]1 [Example 314] : 10.49
Nc1nc2c(-c3ccc(S(=O)(=O)N4CCC(N)CC4)c(S(N)(=O)=O)c3-c3nn[nH]n3)cccc2s1 [Example 148] : 9.67

Input line: Which pIC50 value is on record for NCCCCNS(=O)(=O)c1ccc(-c2cccc3[nH]c(N)nc23)c(-c2nn[nH]n2)c1S(N)(=O)=O [Example 258] ?
Output line: 10.27

Input line: Which pIC50 value is on record for Nc1nc(-c2cccc(-c3ccc(S(=O)(=O)N[C@H]4CCNC4)c(S(N)(=O)=O)c3-c3nn[nH]n3)c2)c[nH]1 [Example 294] ?
Output line: 9.71

Input line: Which pIC50 value is on record for CC(N)CNS(=O)(=O)c1ccc(-c2cccc3sc(N)nc23)c(-c2nnn[nH]2)c1S(N)(=O)=O.O=C(O)C(F)(F)F (centres unmarked) [Example 109, 2,2,2-trifluoroacetate] ?
Output line: 10.09

Input line: Which pIC50 value is on record for NCCNS(=O)(=O)c1ccc(-c2cccc(NC[C@H](N)CO)c2)c(-c2nn[nH]n2)c1S(N)(=O)=O [Example 350] ?
Output line: 8.76

Input line: Which pIC50 value is on record for NC[C@H](CO)NS(=O)(=O)c1ccc(-c2cccc3nc(N)[nH]c23)c(-c2nn[nH]n2)c1S(N)(=O)=O [Example 427] ?
Output line: 9.66

Input line: Which pIC50 value is on record for Nc1ccc(-c2ccc(S(=O)(=O)NC[C@@H](N)CO)c(S(N)(=O)=O)c2-c2nn[nH]n2)cn1 [Example 365] ?
Output line: 9.59

Input line: Which pIC50 value is on record for Nc1nc2c(-c3ccc(S(=O)(=O)N[C@H]4CN[C@@H](CO)C4)c(S(N)(=O)=O)c3-c3nnn[nH]3)cccc2[nH]1 [Example 173] ?
Output line: 10.02

Input line: Which pIC50 value is on record for CN(C)C(=O)c1ccccc1-c1ccc(S(=O)(=O)N[C@@H]2CCNC2)c(S(N)(=O)=O)c1-c1nnn[nH]1 [Example 129] ?
Output line: 9.56

Input line: Which pIC50 value is on record for C[N+]1(CCN)CC[C@@H](NS(=O)(=O)c2ccc(-c3cccc4[nH]c(N)nc34)c(-c3nn[nH]n3)c2S(N)(=O)=O)C1.O=CO[O-] (some centres unmarked) [Example 248] ?
Output line: 10.98

Input line: Which pIC50 value is on record for Nc1ncc(-c2cc(-c3ccc(S(=O)(=O)N[C@@H]4CCNC4)c(S(N)(=O)=O)c3-c3nnn[nH]3)ccn2)[nH]1 [Example 440] ?
Output line: 9.48

Input line: Which pIC50 value is on record for Nc1nc2c(-c3ccc(S(=O)(=O)NC[C@@H](N)CO)c(S(N)(=O)=O)c3-c3nn[nH]n3)cccc2[nH]1 [Example 190] ?
Output line: 10.23

---

# target.or.test.system: IMP-1 (Serratia marcescens, UniProt P52699)
# assay.explanation: biochemical
# Type: biochemical
# experimental.conditions: fluorescence assay, CCF2-FA substrate, 2 pM enzyme, 2 hours at 25° C.; read-out: IMP-1 IC50
measured.endpoint: IC50 (nM)
Note: unit nM is implicit; provide only the numeric part.

NCc1nc2cc(-c3ccc(S(=O)(=O)NC[C@H](O)CN)c(S(N)(=O)=O)c3-c3nn[nH]n3)ccc2s1 [Example 463] : 0.325
C[C@H](N)CNS(=O)(=O)c1ccc(-c2cccc3sc(N)nc23)c(-c2nnn[nH]2)c1S(N)(=O)=O.O=CO [Example 127, formate salt] : 0.322
Nc1nc2c(-c3ccc(S(=O)(=O)NC4CCS(=O)(=O)CC4)c(S(N)(=O)=O)c3-c3nnn[nH]3)cccc2s1 [Example 14] : 0.173
NCc1nc2cc(-c3ccc(S(=O)(=O)N[C@@H](CN)CO)c(S(N)(=O)=O)c3-c3nn[nH]n3)ccc2s1 [Example 475] : 0.13
NC[C@H](O)CNS(=O)(=O)c1ccc(-c2cccc3[nH]c(N)nc23)c(-c2nn[nH]n2)c1S(N)(=O)=O [Example 304] : 0.617

Input line: // fetch IMP-1 (Serratia marcescens, UniProt P52699) IC50 for COCCNCCNS(=O)(=O)c1ccc(-c2cccc3sc(N)nc23)c(-c2nnn[nH]2)c1S(N)(=O)=O [Example 85]
Output line: 0.205

Input line: // fetch IMP-1 (Serratia marcescens, UniProt P52699) IC50 for CNc1nc2c(-c3ccc(S(=O)(=O)N[C@H]4CCNC4)c(S(N)(=O)=O)c3-c3nn[nH]n3)cccc2[nH]1 [Example 295]
Output line: 0.775
